assay: Stabilizing effect of accelerated stabilizers (37° C., 14 days) on standard products and quality control products then accelerated at 30° C. for 2 days; format: physicochemical; conditions: Low concentration level; control; average
reported_metric: average concentration, Control (pg/mL)

>  <compound>
NCCc1ccc(O)c(O)c1

>  <reported_metric>
average concentration, Control

>  <measured>
17.91

$$$$
>  <compound>
CNCC(O)c1ccc(O)c(OC)c1 (centres unmarked)

>  <reported_metric>
average concentration, Control

>  <measured>
11.84

$$$$
>  <compound>
COc1cc(CCN)ccc1O

>  <reported_metric>
average concentration, Control

>  <measured>
12

$$$$
>  <compound>
NC[C@H](O)c1ccc(O)c(O)c1

>  <reported_metric>
average concentration, Control

>  <measured>
60.07

$$$$
>  <compound>
COc1cc(C(O)CN)ccc1O (centres unmarked)

>  <reported_metric>
average concentration, Control

>  <measured>
23.86

$$$$

###

test: Acceleration test of plasma samples with stabilizers (30° C. for 1.5 days, against control plasma stored at −95° C. to −65° C.), LC-MS/MS Area/IS Area; settings: plasma at a low concentration level, plasma containing 200 μg/mL of the component, control plasma 0.079
Ratio (Area/IS Area) E reference

>  <compound>
O=S([O-])S(=O)(=O)[O-].[Na+].[Na+] [sodium pyrosulfite]

>  <Ratio (Area/IS Area) E>
0

$$$$
>  <compound>
O=C(O)CN(CCN(CC(=O)O)CC(=O)O)CC(=O)O.[Na].[Na] [disodium EDTA, disodium ethylenediaminetetraacetic acid]

>  <Ratio (Area/IS Area) E>
0

$$$$
>  <compound>
O=C1O[C@H]([C@@H](O)CO)C(O)=C1O [ascorbic acid]

>  <Ratio (Area/IS Area) E>
0

$$$$
>  <compound>
N[C@@H](CCC(=O)N[C@@H](CS)C(=O)NCC(=O)O)C(=O)O [glutathione]

>  <Ratio (Area/IS Area) E>
0

$$$$

###

Relative deviation % reference
assay: Stabilizing effect of accelerated stabilizers (37° C., 14 days) on standard products and quality control products then accelerated at 30° C. for 2 days; format: physicochemical; conditions: Medium concentration level; 2 days at 30° C. vs Control
reported_metric: Relative deviation % (%)

>  <compound>
COc1cc(C(O)CN)ccc1O (centres unmarked) [NMN]

>  <measured>
1.5

$$$$
>  <compound>
NCCc1ccc(O)c(O)c1 [DA]

>  <measured>
−2.2

$$$$
>  <compound>
NC[C@H](O)c1ccc(O)c(O)c1 [NE]

>  <measured>
1.77

$$$$
>  <compound>
COc1cc(CCN)ccc1O [Group 3-MT]

>  <measured>
−4.98

$$$$
>  <compound>
CNCC(O)c1ccc(O)c(OC)c1 (centres unmarked) [MN]

>  <measured>
−1.18

$$$$

###

assay: Stabilizing effect of accelerated stabilizers (37° C., 14 days) on standard products and quality control products then accelerated at 30° C. for 2 days; assay type: physicochemical; conditions: Medium concentration level; 2 days at 30° C.; average
Tick T if average concentration, 2 days at 30° C. is 300 pg/mL or greater. Tick F if average concentration, 2 days at 30° C. is less than 300 pg/mL.

>  <compound>
CNCC(O)c1ccc(O)c(OC)c1 (centres unmarked) [MN]

>  <class_assignment>
F

$$$$
>  <compound>
NC[C@H](O)c1ccc(O)c(O)c1 [NE]

>  <class_assignment>
T

$$$$
>  <compound>
COc1cc(CCN)ccc1O [Group 3-MT]

>  <class_assignment>
F

$$$$
>  <compound>
COc1cc(C(O)CN)ccc1O (centres unmarked) [NMN]

>  <class_assignment>
T

$$$$

###

Relative deviation % reference
experiment: Stabilizing effect of accelerated stabilizers (37° C., 14 days) on plasma samples then accelerated at 30° C. for 1.5 days; format: physicochemical, human; conditions: samples at a low concentration level; Accelerate vs Control

>  <molecule>
COc1cc(C(O)CN)ccc1O (centres unmarked)

>  <display_unit>
%

>  <Relative deviation %>
1.7

$$$$
>  <molecule>
NCCc1ccc(O)c(O)c1

>  <display_unit>
%

>  <Relative deviation %>
−0.8

$$$$
>  <molecule>
CNCC(O)c1ccc(O)c(OC)c1 (centres unmarked)

>  <display_unit>
%

>  <Relative deviation %>
1.9

$$$$
>  <molecule>
COc1cc(CCN)ccc1O

>  <display_unit>
%

>  <Relative deviation %>
0.6

$$$$
>  <molecule>
NC[C@H](O)c1ccc(O)c(O)c1

>  <display_unit>
%

>  <Relative deviation %>
−2.5

$$$$

###

assay: Acceleration test of plasma samples with stabilizers (30° C. for 1.5 days, against control plasma stored at −95° C. to −65° C.), LC-MS/MS Area/IS Area; conditions: plasma at a high concentration level, plasma containing 50 μg/mL of the component, control plasma 0.624
Ratio (Area/IS Area) E reference
reported_metric: Ratio (Area/IS Area) E

>  <compound>
N[C@@H](CCC(=O)N[C@@H](CS)C(=O)NCC(=O)O)C(=O)O

>  <reported_metric>
Ratio (Area/IS Area) E

>  <measured>
0

$$$$
>  <compound>
O=C(O)CN(CCN(CC(=O)O)CC(=O)O)CC(=O)O.[Na].[Na] [disodium EDTA, disodium ethylenediaminetetraacetic acid]

>  <reported_metric>
Ratio (Area/IS Area) E

>  <measured>
0

$$$$
>  <compound>
O=S([O-])S(=O)(=O)[O-].[Na+].[Na+] [sodium pyrosulfite]

>  <reported_metric>
Ratio (Area/IS Area) E

>  <measured>
0

$$$$
>  <compound>
O=C1O[C@H]([C@@H](O)CO)C(O)=C1O

>  <reported_metric>
Ratio (Area/IS Area) E

>  <measured>
0

$$$$

###

experiment: Stabilizing effect of accelerated stabilizers (37° C., 14 days) on standard products and quality control products then accelerated at 30° C. for 2 days; assay type: physicochemical; conditions: Medium concentration level; control; average
Tick Fulfilled if average concentration, Control is 200 pg/mL or greater. Tick Not fulfilled if average concentration, Control is less than 200 pg/mL.

>  <compound>
NCCc1ccc(O)c(O)c1

>  <class_assignment>
Fulfilled

$$$$
>  <compound>
COc1cc(C(O)CN)ccc1O (centres unmarked)

>  <class_assignment>
Fulfilled

$$$$
>  <compound>
COc1cc(CCN)ccc1O

>  <class_assignment>
Not fulfilled

$$$$
>  <compound>
NC[C@H](O)c1ccc(O)c(O)c1

>  <class_assignment>
Fulfilled

$$$$

###

experiment: Stabilizing effect of accelerated stabilizers (37° C., 14 days) on standard products and quality control products then accelerated at 30° C. for 2 days; format: physicochemical; conditions: Low concentration level; 2 days at 30° C.; average
Please use true (1) for average concentration, 2 days at 30° C. under 20 pg/mL and false (0) for everything else, ties included.

>  <compound>
NCCc1ccc(O)c(O)c1

>  <class_assignment>
true (1)

$$$$
>  <compound>
COc1cc(C(O)CN)ccc1O (centres unmarked)

>  <class_assignment>
false (0)

$$$$
>  <compound>
NC[C@H](O)c1ccc(O)c(O)c1

>  <class_assignment>
false (0)

$$$$
>  <compound>
CNCC(O)c1ccc(O)c(OC)c1 (centres unmarked)

>  <class_assignment>
true (1)

$$$$
>  <compound>
COc1cc(CCN)ccc1O

>  <class_assignment>
true (1)

$$$$

###

Relative deviation % reference
test: Stabilizing effect of accelerated stabilizers (37° C., 14 days) on plasma samples then accelerated at 30° C. for 1.5 days; format: physicochemical, human; details: samples at a high concentration level; Accelerate vs Control

>  <compound>
COc1cc(CCN)ccc1O [Group 3-MT]

>  <Relative deviation % [%]>
−2.0

$$$$
>  <compound>
NC[C@H](O)c1ccc(O)c(O)c1 [NE]

>  <Relative deviation % [%]>
−7.1

$$$$
>  <compound>
NCCc1ccc(O)c(O)c1 [DA]

>  <Relative deviation % [%]>
−2.0

$$$$
>  <compound>
COc1cc(C(O)CN)ccc1O (centres unmarked) [NMN]

>  <Relative deviation % [%]>
2.1

$$$$
>  <compound>
CNCC(O)c1ccc(O)c(OC)c1 (centres unmarked) [MN]

>  <Relative deviation % [%]>
−1.2

$$$$

###

average concentration, 2 days at 30° C. reference
assay: Stabilizing effect of accelerated stabilizers (37° C., 14 days) on standard products and quality control products then accelerated at 30° C. for 2 days; type: physicochemical; conditions: High concentration level; 2 days at 30° C.; average
reported_metric: average concentration, 2 days at 30° C. (pg/mL)

>  <compound>
NCCc1ccc(O)c(O)c1

>  <reported_metric>
average concentration, 2 days at 30° C.

>  <measured>
1485.59

$$$$
>  <compound>
COc1cc(C(O)CN)ccc1O (centres unmarked)

>  <reported_metric>
average concentration, 2 days at 30° C.

>  <measured>
1910.2

$$$$
>  <compound>
COc1cc(CCN)ccc1O

>  <reported_metric>
average concentration, 2 days at 30° C.

>  <measured>
1001.8

$$$$
>  <compound>
CNCC(O)c1ccc(O)c(OC)c1 (centres unmarked)

>  <reported_metric>
average concentration, 2 days at 30° C.

>  <measured>
984.35

$$$$
>  <compound>
NC[C@H](O)c1ccc(O)c(O)c1

>  <reported_metric>
average concentration, 2 days at 30° C.

>  <measured>
4998.13

$$$$
